- measurement_target: T1, LNX2_2, Q8N448
- T1 sequence (Q8N448 334-432, limits assumed, looked up): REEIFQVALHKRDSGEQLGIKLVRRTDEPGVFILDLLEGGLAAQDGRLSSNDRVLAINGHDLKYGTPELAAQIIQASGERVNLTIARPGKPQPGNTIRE
- experimental_details: holdup assay
- Parameters: key: below the threshold = too weak to quantify, mostly under pKd 3.1 to 4
- experimental_context: plain residues with an end cap or a label only (N-terminal biotin on a linker: ahx)
measurement_name: pKd

binder="QPRTWLQSPV [RTKN, Q9BST9]" result="below the threshold"
binder="TQKFRASTAL [FRMPD1, Q5SYB0]" result="below the threshold"
binder="APSRKLNTEI [TIAM1, Q13009]" result="below the threshold"

Origin of values: paper PMC9482650
